- Target: IRAK1 (Homo sapiens, UniProt P51617)
- Sequence (P51617 whole entry): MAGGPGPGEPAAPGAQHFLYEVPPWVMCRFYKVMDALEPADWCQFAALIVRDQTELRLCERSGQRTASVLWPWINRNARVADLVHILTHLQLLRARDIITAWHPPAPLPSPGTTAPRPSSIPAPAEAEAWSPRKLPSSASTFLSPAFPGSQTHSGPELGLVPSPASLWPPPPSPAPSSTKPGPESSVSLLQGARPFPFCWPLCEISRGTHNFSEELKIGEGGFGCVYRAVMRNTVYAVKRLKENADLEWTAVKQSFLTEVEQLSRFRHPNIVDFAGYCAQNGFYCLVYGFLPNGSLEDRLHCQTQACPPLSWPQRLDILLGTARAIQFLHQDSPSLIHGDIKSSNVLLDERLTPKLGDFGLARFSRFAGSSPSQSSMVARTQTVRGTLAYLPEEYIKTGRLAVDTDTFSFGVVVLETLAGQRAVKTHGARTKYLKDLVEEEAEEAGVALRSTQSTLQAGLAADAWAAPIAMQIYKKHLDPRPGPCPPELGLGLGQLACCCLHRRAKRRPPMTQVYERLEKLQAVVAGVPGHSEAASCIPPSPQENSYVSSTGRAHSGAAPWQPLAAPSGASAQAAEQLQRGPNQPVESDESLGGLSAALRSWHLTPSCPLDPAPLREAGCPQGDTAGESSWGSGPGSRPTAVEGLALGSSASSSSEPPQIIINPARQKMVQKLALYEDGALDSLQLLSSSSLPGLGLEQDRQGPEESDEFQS
- Procedure Summary: RBC HotSpot Kinase Assay, IRAK1
- Condition Set: HotSpot functional assay, isolated kinase enzyme, 33P-ATP
Known pIC50 of a selection of compounds
Reminder that pIC50 means the negative base-10 logarithm of the concentration expressed in mol/L.

Solved entries:
> print(dat)
                                   compound                                target  test.result
1  COc1cc2ncc(-c3nc(N[C@H]4CNCC[C@@H]4F)c(F)cc3F)n2nc1C1CCC1 [Compound 15a]  IRAK1 (Homo sapiens, UniProt P51617)         7.92
2  COc1cc2ncc(-c3cc(-c4ccccc4)cc(N[C@@H]4CCCNC4)n3)n2nc1C1CC1 [Compound 55a]  IRAK1 (Homo sapiens, UniProt P51617)         5.40
3  COc1cc2ncc(-c3nc(N[C@@H]4CCCNC4)c(F)cc3F)n2nc1C(C)(O)C(F)(F)F (single isomer, unassigned) [Compound 81a]  IRAK1 (Homo sapiens, UniProt P51617)         6.23
4  COc1cc2ncc(-c3nc(N[C@H]4CNC[C@@H]4F)c(F)cc3F)n2nc1C(C)(O)C(F)(F)F (single isomer, unassigned) [Compound 78a]  IRAK1 (Homo sapiens, UniProt P51617)         6.01
5  COc1cc2ncc(-c3nc(N[C@H]4CNC[C@@H]4F)c(F)cc3F)n2nc1N1CCCS1(=O)=O [Compound 69a]  IRAK1 (Homo sapiens, UniProt P51617)         6.90
6  COc1cc2ncc(-c3nc(N[C@H]4CNCC[C@@H]4F)ccc3F)n2nc1C1CC1 [Compound 47a]  IRAK1 (Homo sapiens, UniProt P51617)         8.22

q: What does the data say about its pIC50? Entry: COc1cc2ncc(-c3ccc(F)c(N[C@H]4CNCC[C@@H]4F)n3)n2nc1C1CC1 [Compound 48a]
a: 6.77

q: Fill in: pIC50 of COc1cc2ncc(-c3nc(N[C@H]4CNCC[C@@H]4F)c(F)cc3F)n2nc1N1CCCS1(=O)=O [Compound 70a] is ___
a: 7.22

----------
pIC50 listing for selected compounds.
- Target: IRAK4 (Homo sapiens)
- Procedure Summary: RBC HotSpot Kinase Assay, IRAK4
- Format: biochemical
- Set-up: purchased RBC (Reaction Biology) HotSpot assay
- Condition Set: HotSpot functional assay, isolated kinase enzyme, 33P-ATP
// pIC50: -log10(molar conc.)

q: Tell me the measured pIC50 of COc1cc2ncc(-c3cc(C4CC4)cc(N[C@H]4CNCC[C@@H]4F)n3)n2nc1C1CC1 [Compound 56a] , please.
a: 5.05

q: Quick check: pIC50 of "COc1cc2ncc(-c3nc(N[C@H]4CNCC[C@@H]4F)c(F)cc3F)n2nc1C1CC(C)(C)C1" ?
a: 7.59

q: I am curious: what pIC50 value has been reported for COc1cc2ncc(-c3nc(N[C@@H]4CCCNC4)c(F)cc3F)n2nc1C(C)(O)C(F)(F)F (single isomer, unassigned) [Compound 81a] ?
a: 7.23

q: Sample "COc1cc2ncc(-c3ccc(F)c(N[C@H]4CNCC[C@@H]4F)n3)n2nc1C(C)(C)O" — what was its pIC50?
a: 6.80

----------
- Target: IRAK4 (Homo sapiens, UniProt Q9NWZ3)
- Sequence (Q9NWZ3 whole entry): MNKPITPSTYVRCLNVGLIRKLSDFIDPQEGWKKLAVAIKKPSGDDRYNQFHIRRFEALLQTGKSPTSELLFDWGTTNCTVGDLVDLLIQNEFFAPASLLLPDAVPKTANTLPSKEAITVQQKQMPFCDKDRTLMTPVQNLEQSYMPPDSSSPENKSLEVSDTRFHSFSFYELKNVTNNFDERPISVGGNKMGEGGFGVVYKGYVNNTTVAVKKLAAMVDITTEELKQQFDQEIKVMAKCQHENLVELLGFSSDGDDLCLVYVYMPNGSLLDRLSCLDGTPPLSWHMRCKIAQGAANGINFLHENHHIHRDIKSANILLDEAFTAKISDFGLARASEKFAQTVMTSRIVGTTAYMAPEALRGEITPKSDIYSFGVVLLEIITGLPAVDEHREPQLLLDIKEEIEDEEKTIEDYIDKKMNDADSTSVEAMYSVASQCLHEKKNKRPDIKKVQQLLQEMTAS
- Procedure Summary: RBC HotSpot Kinase Assay, IRAK4
- Type: biochemical
- Set-up: purchased RBC (Reaction Biology) HotSpot assay
- Condition Set: HotSpot functional assay, isolated kinase enzyme, 33P-ATP
pIC50: −log10 of the molar value.
Experimental Readout: pIC50

> print(dat)
                                   compound  experimental.readout  test.result
1  COc1cc2ncc(-c3ccc(F)c(N[C@H]4CNC[C@@H]4F)n3)n2nc1C1CC1 [Compound 46a]                 pIC50       > 9.30
2  COc1cc2ncc(-c3cc(C4CC4)cc(N[C@@H]4CCCNC4)n3)n2nc1C1CC1 [Compound 58a]                 pIC50       < 5.00

q: Can you look up the measured pIC50 of COc1cc2ncc(-c3ccc(C)c(N[C@@H]4CCCNC4)n3)n2nc1C1CC1 [Compound 41a] for me?
a: < 5.00

----------
- Target: IRAK4 (Homo sapiens)
- Procedure Summary: RBC HotSpot Kinase Assay, IRAK4
- Type: biochemical
- Set-up: purchased RBC (Reaction Biology) HotSpot assay
- Condition Set: HotSpot functional assay, isolated kinase enzyme, 33P-ATP
- Text: This assay uses the isolated kinase enzyme. This assay is very useful for determining competition of the inhibitor for ATP and/or substrates and for measuring the kinetics of enzyme inhibition. […] Unlike kinase binding assays that measure competition for ATP, the HotSpot Kinase Assay is a functional assay that measures catalytic activity; as such it measures relative functional potency regardless of the mechanism of enzyme inhibition. […]
Experimental Readout: IC50

Worked cases, IC50 given:
> print(dat)
                                   molecule                target  experimental.readout  test.result
1  COc1cc2ncc(-c3cc(C4CC4)cc(N[C@H]4CNC[C@@H]4F)n3)n2nc1C1CC1 [Compound 57a]  IRAK4 (Homo sapiens)                  IC50      > 10 µM
2  COc1cc2ncc(-c3ccc(C#N)c(N[C@H]4CNCC[C@@H]4F)n3)n2nc1C1CC1 [Compound 29a]  IRAK4 (Homo sapiens)                  IC50  < 0.0005 µM
3  COc1cc2ncc(-c3cc(Oc4ccccc4)cc(N[C@@H]4CCCNC4)n3)n2nc1C1CC1 [Compound 59a]  IRAK4 (Homo sapiens)                  IC50      > 10 µM

Now turn to the next molecule.
q: Endpoint output: IC50 of COc1cc2ncc(-c3nc(N[C@H]4CNCC[C@@H]4F)ccc3F)n2nc1C1CC1 [Compound 47a] . Value?
a: < 0.0005 µM

----------
IC50 overview
- Target: FLT3 (Homo sapiens)
- Sequence (P36888 27-993): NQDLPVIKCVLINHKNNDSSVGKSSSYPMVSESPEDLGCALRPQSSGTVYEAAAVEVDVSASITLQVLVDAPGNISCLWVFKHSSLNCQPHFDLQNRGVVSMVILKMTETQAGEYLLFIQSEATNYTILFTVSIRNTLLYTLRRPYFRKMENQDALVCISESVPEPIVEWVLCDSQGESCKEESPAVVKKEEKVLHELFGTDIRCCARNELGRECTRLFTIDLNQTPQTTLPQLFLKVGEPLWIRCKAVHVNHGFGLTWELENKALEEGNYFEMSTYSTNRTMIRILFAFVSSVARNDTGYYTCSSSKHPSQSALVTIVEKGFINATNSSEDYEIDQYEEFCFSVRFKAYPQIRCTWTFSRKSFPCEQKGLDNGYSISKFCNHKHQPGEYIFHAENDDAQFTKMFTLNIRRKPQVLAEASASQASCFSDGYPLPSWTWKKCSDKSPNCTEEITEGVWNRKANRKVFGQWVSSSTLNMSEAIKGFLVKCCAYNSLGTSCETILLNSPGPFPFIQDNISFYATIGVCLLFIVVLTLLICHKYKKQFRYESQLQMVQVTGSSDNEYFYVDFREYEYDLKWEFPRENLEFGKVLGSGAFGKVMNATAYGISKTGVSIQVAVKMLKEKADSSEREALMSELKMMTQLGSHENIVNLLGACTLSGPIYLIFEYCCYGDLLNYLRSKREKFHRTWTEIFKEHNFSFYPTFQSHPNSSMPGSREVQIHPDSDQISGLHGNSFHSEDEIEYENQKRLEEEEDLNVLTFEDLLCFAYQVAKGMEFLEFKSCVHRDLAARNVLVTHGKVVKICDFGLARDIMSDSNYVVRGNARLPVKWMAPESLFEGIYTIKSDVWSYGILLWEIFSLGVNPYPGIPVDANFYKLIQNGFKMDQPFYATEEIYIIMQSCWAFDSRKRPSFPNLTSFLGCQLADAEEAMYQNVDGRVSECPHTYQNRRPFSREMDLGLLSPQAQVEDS
- Procedure Summary: RBC HotSpot Kinase Assay, FLT3
- Type: biochemical
- Design: purchased RBC (Reaction Biology) HotSpot assay
- Condition Set: HotSpot functional assay, isolated kinase enzyme, 33P-ATP

Examples with answers:
> print(dat)
                                   compound  experimental.readout  test.result
1  COc1ccc(-c2cnc3cc(OC)c(C4CC4)nn23)nc1N[C@@H]1CCCNC1 [Compound 34a]                  IC50     < 0.5 nM
2  COc1cc2ncc(-c3nc(N[C@H]4CNC[C@@H]4F)c(F)cc3F)n2nc1C12CC(C1)C2 [Compound 66a]                  IC50     < 0.5 nM
3  COc1cc2ncc(-c3nc(N[C@@H]4CCCNC4)ccc3C)n2nc1C1CC1 [Compound 40a]                  IC50     < 0.5 nM
4  COc1cc2ncc(-c3nc(N[C@H]4CNCC[C@@H]4F)c(F)cc3F)n2nc1C1CCO1 (some centres unmarked) [Compound 74a]                  IC50     < 0.5 nM
5  COc1cc2ncc(-c3nc(N[C@H]4CNCC[C@@H]4F)ccc3F)n2nc1C(C)(C)O [Compound 4a]                  IC50     < 0.5 nM

q: Notebook entry, FLT3 (Homo sapiens) assay: IC50 of COc1cc2ncc(-c3nc(N[C@H]4CNC[C@@H]4F)c(F)cc3F)n2nc1C(C)(O)C(F)(F)F (single isomer, unassigned) [Compound 80a] = ?
a: < 0.5 nM

q: Look up IC50 with FLT3 (Homo sapiens) for this compound: COc1cc2ncc(-c3nc(N[C@@H]4CCCNC4)c(F)cc3F)n2nc1C1CCCC1 [Compound 17a]
a: < 0.5 nM

q: Reported IC50 for FLT3 (Homo sapiens), given COc1cc2ncc(-c3nc(N[C@@H]4CCCNC4)c(F)cc3F)n2nc1C(C)(O)C(F)(F)F (single isomer, unassigned) [Compound 79a] ?
a: < 0.5 nM

----------
- Target: IRAK4 (Homo sapiens, UniProt Q9NWZ3)
- Procedure Summary: RBC HotSpot Kinase Assay, IRAK4
- Type: biochemical
- Parameters: purchased RBC (Reaction Biology) HotSpot assay
- Condition Set: HotSpot functional assay, isolated kinase enzyme, 33P-ATP
pIC50: −log10 of the molar value.
Experimental Readout: pIC50

Take a look at these entries with their results.
> print(dat)
                                   compound  experimental.readout  test.result
1  COc1cc2ncc(-c3nc(N[C@H]4CNC[C@@H]4F)ccc3F)n2nc1C1CC1 [Compound 45a]                 pIC50       > 9.30
2  COc1cc2ncc(-c3cc(Oc4ccccc4)cc(N[C@H]4CNCC[C@@H]4F)n3)n2nc1C1CC1 [Compound 61a]                 pIC50       < 5.00

q: Form field: reported pIC50 of COc1cc2ncc(-c3nc(N[C@@H]4CCCNC4)c(C)cc3C)n2nc1C1CC1 [Compound 62a]
a: < 5.00
